MEASUREMENT TARGET: cathepsin K (Homo sapiens)
Sequence (P43235 115-329, species assumed): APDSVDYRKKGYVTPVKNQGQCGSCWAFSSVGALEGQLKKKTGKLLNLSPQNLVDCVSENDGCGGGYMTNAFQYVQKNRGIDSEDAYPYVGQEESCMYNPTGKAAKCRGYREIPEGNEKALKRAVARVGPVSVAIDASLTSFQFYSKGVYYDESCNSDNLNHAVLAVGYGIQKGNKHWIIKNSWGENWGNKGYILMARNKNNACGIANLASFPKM
PROTOCOL: In vitro assay for inhibition of cathepsin K
Assay type: biochemical
EXPERIMENTAL SETUP: r cathepsin K, substrate N-CBZ-Phe-Arg-AMC, pH 5.5, 10 min incubation at room temperature
IC50 listing for selected compounds.
Your answer should be a plain number; it is taken to be in µM.

COMPOUND	MEASUREMENT TARGET	IC50, µM
CC(C)C[C@H](NC(=O)OCc1ccccc1)C(=O)NC(=CNc1ccccc1)C(N)=O [Example 8]	cathepsin K (Homo sapiens)	0.33

Input CCOC(=O)/C(=C\N1CCN(C)CC1)NC(=O)[C@H](CC(C)C)NC(=O)OCc1ccccc1 [Example 21] . Output IC50: 0.087

CC(C)C[C@H](NC(=O)OCc1ccccc1)C(=O)N/C(=C/N1CCOCC1)C(=O)c1ccc(F)cc1 [Example 29] has a reported IC50 of 0.34
